The reader will find reported Kp values listed item by item below.
Experiment: in vivo
Details: rat, brain / blood
Description: Ratio of drug level in brain to blood in rat
QUANTITY: Kp

> print(dat)
                               smiles.input  reported.value
1  CS(=O)(=O)c1ccc(C2=C(c3ccccc3)C(=O)OC2)cc1             0.8
2  CCCCOc1nc(-c2ccc(S(C)(=O)=O)cc2)cc(C(F)(F)F)n1             3.2

----------
Molecular target: Prostaglandin G/H synthase 1 (Homo sapiens, UniProt P23219)
Sequence (P23219 whole entry): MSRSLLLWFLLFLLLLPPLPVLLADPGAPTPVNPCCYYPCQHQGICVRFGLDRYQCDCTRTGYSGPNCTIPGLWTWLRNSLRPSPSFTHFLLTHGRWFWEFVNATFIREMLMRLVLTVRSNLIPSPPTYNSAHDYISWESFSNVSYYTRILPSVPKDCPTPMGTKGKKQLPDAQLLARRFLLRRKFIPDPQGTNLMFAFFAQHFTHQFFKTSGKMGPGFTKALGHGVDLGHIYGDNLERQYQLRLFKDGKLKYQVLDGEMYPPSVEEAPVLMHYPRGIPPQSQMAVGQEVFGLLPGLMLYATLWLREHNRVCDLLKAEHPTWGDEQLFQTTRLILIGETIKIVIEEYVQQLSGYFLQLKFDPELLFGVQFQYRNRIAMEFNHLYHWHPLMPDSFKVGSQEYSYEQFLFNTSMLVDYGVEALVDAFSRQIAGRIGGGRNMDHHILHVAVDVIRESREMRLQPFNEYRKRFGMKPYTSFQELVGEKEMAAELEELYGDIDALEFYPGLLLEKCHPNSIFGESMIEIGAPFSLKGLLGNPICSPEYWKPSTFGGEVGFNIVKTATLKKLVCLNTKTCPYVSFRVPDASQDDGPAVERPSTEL
Type: tissue-based, Blood
pIC50: −log10 of the molar value.
Reported pIC50 by item:
QUANTITY: pIC50

> print(dat)
                                   compound  quantity  limit.operator  reported.value
1  CC(C)CNc1nc(-c2ccc(S(C)(=O)=O)cc2)cc(C(F)(F)F)n1     pIC50               =            4.21
2  Cc1ccc(-c2ncc(Cl)cc2-c2ccc(S(C)(=O)=O)cc2)cn1 [ETORICOXIB]     pIC50               <            4.00
3  CS(=O)(=O)c1ccc(-c2cc(C(F)(F)F)nc(NC3CCCCC3)n2)cc1     pIC50               =            4.94
4  CS(=O)(=O)c1ccc(-c2cc(C(F)(F)F)nc(NCc3ccccc3)n2)cc1     pIC50               =            4.41
5  CCCCNc1nc(-c2ccc(S(C)(=O)=O)cc2)cc(C(F)(F)F)n1     pIC50               <            4.02

----------
Known half-life of a selection of compounds
Assay: Terminal half life in rat at 1 mg/kg/hr, iv
Assay type: ADME, organism-based
Design: route intravenous
Details: in vivo, read-out: beta t1/2 (converted)
QUANTITY: half-life (h)

> print(dat)
                               smiles.input  unit.text  reported.value
1  CCCCOc1nc(-c2ccc(S(C)(=O)=O)cc2)cc(C(F)(F)F)n1          h             4.2
2  CC(C)CNc1nc(-c2ccc(S(C)(=O)=O)cc2)cc(C(F)(F)F)n1          h               9

----------
Molecular target: Prostaglandin G/H synthase 2 (Homo sapiens, UniProt P35354)
Sequence (P35354 whole entry): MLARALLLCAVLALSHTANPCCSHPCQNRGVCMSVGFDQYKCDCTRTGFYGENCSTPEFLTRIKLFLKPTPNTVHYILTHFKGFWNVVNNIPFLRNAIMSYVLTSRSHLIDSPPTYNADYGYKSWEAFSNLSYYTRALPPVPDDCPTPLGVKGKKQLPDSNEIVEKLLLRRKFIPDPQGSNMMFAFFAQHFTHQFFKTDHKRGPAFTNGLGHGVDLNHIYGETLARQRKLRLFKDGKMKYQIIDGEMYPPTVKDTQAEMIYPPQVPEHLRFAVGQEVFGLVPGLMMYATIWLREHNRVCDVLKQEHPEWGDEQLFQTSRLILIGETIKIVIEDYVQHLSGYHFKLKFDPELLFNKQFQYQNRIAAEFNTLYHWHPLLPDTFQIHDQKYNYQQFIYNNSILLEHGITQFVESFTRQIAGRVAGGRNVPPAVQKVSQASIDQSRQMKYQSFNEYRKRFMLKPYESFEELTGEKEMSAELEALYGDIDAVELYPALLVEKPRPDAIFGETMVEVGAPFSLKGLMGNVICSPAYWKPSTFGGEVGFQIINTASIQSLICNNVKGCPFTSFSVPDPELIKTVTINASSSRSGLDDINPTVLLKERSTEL
Test: biochemical
Type: cell-based, Sf9
pIC50: −log10 of the molar value.
QUANTITY: pIC50

> print(dat)
                                smiles.input  limit.operator  reported.value
 1  CS(=O)(=O)c1ccc(-c2cc(C(F)(F)F)nc(OCC3CCCCCC3)n2)cc1               =            5.99
 2  CCCCOc1nc(-c2ccc(S(C)(=O)=O)cc2)cc(C(F)(F)F)n1               =            7.67
 3  CS(=O)(=O)c1ccc(-c2cc(C(F)(F)F)nc(OCC3CCCCC3)n2)cc1               =            7.35
 4  CS(=O)(=O)c1ccc(-c2cc(C(F)(F)F)nc(OC3CCCC3)n2)cc1               >            8.00
 5  Cc1cccc(Oc2nc(-c3ccc(S(C)(=O)=O)cc3)cc(C(F)(F)F)n2)c1               >            8.00
 6  CS(=O)(=O)c1ccc(-c2cc(C(F)(F)F)nc(OC3CCCCCCC3)n2)cc1               >            8.00
 7  CS(=O)(=O)c1ccc(-c2cc(C(F)(F)F)nc(OC3CCCCCC3)n2)cc1               >            8.00
 8  CC(C)Oc1nc(-c2ccc(S(C)(=O)=O)cc2)cc(C(F)(F)F)n1               =            7.20
 9  CS(=O)(=O)c1ccc(-c2cc(C(F)(F)F)nc(OC3CCC3)n2)cc1               >            8.00
10  CC(C)(C)Oc1nc(-c2ccc(S(C)(=O)=O)cc2)cc(C(F)(F)F)n1               =            7.48
11  CC(C)CNc1nc(-c2ccc(S(C)(=O)=O)cc2)cc(C(F)(F)F)n1               =            7.92
